procedure details: Cellular CaCo2 permeability assay from apical to basal (A-B)
Format: in vitro ADME
run parameters: human, Caco-2, read-out: Pe A-B (permeability)
endpoint name: Papp A→B (×10⁻⁶ cm/s)

Consider the following illustrative entries.
>  <compound string>
CCn1cc(-n2c(=O)n(C)c3cnc4ccc(-c5ccc(COC)nc5)cc4c32)c(C)n1

>  <observed>
20.5

$$$$
>  <compound string>
CNc1cc(-c2ccc3ncc4c(c3c2)n(-c2cn(C)nc2C)c(=O)n4C)cnc1COC

>  <observed>
13.9

$$$$
>  <compound string>
CCn1cc(-n2c(=O)n(C)c3cnc4ccc(-c5cnc(OC)nc5OC)cc4c32)c(C)n1

>  <observed>
35.5

$$$$
>  <compound string>
Cc1ncc(-c2ccc3ncc4c(c3c2)n(-c2cn(C)nc2C)c(=O)n4C)cc1OC(CF)CF

>  <observed>
26.1

$$$$
>  <compound string>
Cc1nn(C)cc1-n1c(=O)n(C)c2cnc3ccc(-c4ccc(CO)nc4)cc3c21

>  <observed>
5.6

$$$$

[I] CCNc1cc(-c2ccc3ncc4c(c3c2)n(-c2cn(C)nc2C)c(=O)n4C)cnc1C
[II] COCc1cncc(-c2ccc3ncc4c(c3c2)n(-c2cn(C)nc2Cl)c(=O)n4C)c1
Q: Decide: I or II , by lowest recorded Papp A→B. Label of pick, please.
A: I
(I: 17 ×10⁻⁶ cm/s, II: 33.5 ×10⁻⁶ cm/s)

* * *

procedure details: Cellular CaCo2 permeability assay from apical to basal (A-B)
Type: in vitro ADME
run parameters: human, Caco-2, read-out: Pe A-B (permeability)
endpoint name: Papp A→B (×10⁻⁶ cm/s)

Consider the following illustrative entries.
>  <compound string>
COc1cncc(-c2ccc3ncc4c(c3c2)n(-c2cn(C)nc2C)c(=O)n4C)c1

>  <observed>
24

$$$$
>  <compound string>
CCNc1cc(-c2ccc3ncc4c(c3c2)n(-c2cn(CC)nc2C)c(=O)n4C)cnc1CO

>  <observed>
10.9

$$$$
>  <compound string>
Cc1nn(C)cc1-n1c(=O)n(C)c2cnc3ccc(-c4cncc(OC(C)C)c4)cc3c21

>  <observed>
30.5

$$$$
>  <compound string>
CCOc1ccc(-c2ccc3ncc4c(c3c2)n(-c2cn(CC(=O)N(C)CC)nc2C)c(=O)n4C)cn1

>  <observed>
17

$$$$
>  <compound string>
COc1ccc(-c2ccc3ncc4[nH]c(=O)n(-c5cn(C)nc5C)c4c3n2)cc1OC

>  <observed>
22.1

$$$$
>  <compound string>
Cc1ncc(-c2ccc3ncc4c(c3c2)n(-c2cn(C)nc2C)c(=O)n4C)cc1OC(C)C

>  <observed>
26.7

$$$$

[a] CCOc1ccc(-c2ccc3ncc4c(c3c2)n(-c2cn(C(C)C)nc2C)c(=O)n4C)cn1
[b] COc1ccc(-c2ccc3ncc4c(c3c2)n(-c2cn(CC(=O)N(C)C)nc2C)c(=O)n4C)cn1
Q: Decide: a or b , by lowest recorded Papp A→B. Label of pick, please.
A: b
(b: 7.7 ×10⁻⁶ cm/s, a: 27.8 ×10⁻⁶ cm/s)

* * *

tested system: PI3K delta (Homo sapiens, UniProt O00329)
Construct: for the full-length p110-d subunit are generated and fused by overlapping PCR; p85(iSH2) fusion partner (see partner chain) (N); His tag (C); Tn5 (Trichoplusia ni) or TiniPro insect cells
Sequence (O00329 with tags, fused parts or gaps limits assumed): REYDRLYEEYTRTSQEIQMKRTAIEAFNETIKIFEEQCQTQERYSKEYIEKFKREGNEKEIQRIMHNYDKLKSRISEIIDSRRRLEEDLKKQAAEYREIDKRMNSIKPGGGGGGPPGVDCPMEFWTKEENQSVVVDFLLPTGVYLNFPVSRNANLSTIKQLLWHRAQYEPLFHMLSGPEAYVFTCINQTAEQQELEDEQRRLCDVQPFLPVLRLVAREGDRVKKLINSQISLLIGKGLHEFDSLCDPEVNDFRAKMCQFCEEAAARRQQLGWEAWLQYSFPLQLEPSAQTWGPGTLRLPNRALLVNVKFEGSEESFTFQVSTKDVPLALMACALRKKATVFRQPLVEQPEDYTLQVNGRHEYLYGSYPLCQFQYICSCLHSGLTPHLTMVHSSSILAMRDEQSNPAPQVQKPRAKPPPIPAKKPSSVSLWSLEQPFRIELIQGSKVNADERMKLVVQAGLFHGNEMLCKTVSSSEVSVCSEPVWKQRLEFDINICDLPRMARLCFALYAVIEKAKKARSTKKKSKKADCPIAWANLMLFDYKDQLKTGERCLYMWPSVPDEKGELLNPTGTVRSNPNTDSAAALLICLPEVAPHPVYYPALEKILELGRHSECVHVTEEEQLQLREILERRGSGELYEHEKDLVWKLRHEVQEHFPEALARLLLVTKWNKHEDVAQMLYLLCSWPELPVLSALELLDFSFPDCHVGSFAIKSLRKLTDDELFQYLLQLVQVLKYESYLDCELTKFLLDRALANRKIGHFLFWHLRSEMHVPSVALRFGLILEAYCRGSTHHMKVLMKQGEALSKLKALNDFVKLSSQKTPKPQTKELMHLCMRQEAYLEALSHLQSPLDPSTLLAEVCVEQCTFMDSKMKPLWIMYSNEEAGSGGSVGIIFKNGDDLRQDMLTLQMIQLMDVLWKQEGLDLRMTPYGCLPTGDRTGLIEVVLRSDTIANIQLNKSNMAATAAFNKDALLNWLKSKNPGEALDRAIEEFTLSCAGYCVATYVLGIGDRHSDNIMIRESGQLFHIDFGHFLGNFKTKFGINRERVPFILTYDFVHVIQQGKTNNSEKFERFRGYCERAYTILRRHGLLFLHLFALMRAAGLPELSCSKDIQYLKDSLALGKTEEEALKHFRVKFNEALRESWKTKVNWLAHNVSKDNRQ
procedure details: PI3K delta kinase assay (Kinase-Glo luminescence)
pIC50: −log10 of the molar value.
endpoint name: pIC50

>  <compound string>
CCOc1cncc(-c2ccc3ncc4c(c3c2)n(-c2c(C)nn(C)c2C)c(=O)n4C)c1

>  <observed>
6.89

$$$$
>  <compound string>
Cc1nn(C)c(C)c1-n1c(=O)n(C)c2cnc3ccc(-c4cccc(O)c4)cc3c21

>  <observed>
7.42

$$$$
>  <compound string>
CCOc1ccc(-c2ccc3ncc4c(c3c2)n(-c2cn(C)nc2C)c(=O)n4C)cc1OC

>  <observed>
7.40

$$$$

[A] Cc1nn(C)cc1-n1c(=O)n(C)c2cnc3ccc(-c4ccc(N5CCN(C)CC5)nc4)cc3c21
[B] Cc1nn(C)cc1-n1c(=O)n(C)c2cnc3ccc(-c4ccnc(N(C)C(C)C)c4)cc3c21
[C] Cc1nn(C(C)C)cc1-n1c(=O)n(C)c2cnc3ccc(-c4cnc(N)c(CO)c4)cc3c21
Q: Sort the 3 compounds by pIC50; largest first, smallest last. When ranking, write the labels in the order the request describes.
A: C, A, B

[I] CCOc1ccc(-c2ccc3ncc4c(c3c2)n(-c2c(C)nn(CCOC)c2C)c(=O)n4C)cn1
[II] C=CCn1c(=O)n(-c2cn(C)nc2C)c2c3cc(-c4cncc(N)c4)ccc3ncc21
Q: Decide: I or II , by lowest recorded pIC50. Label of pick, please.
A: I

[I] CCOc1ccc(-c2ccc3ncc4c(c3c2)n(-c2cn(C(C)C)nc2C)c(=O)n4C)cn1
[II] COc1cc(-c2ccc3ncc4c(c3c2)n(-c2cn(C(C)C)nc2C)c(=O)n4C)cnc1CO
Q: Identify the entry with the larger pIC50. Options: I and II Label of pick, please.
A: II

[1] CCOc1ccc(-c2ccc3ncc4c(c3c2)n(-c2ccnn2CC)c(=O)n4C)cn1
[2] COCc1ccc(-c2ccc3ncc4c(c3c2)n(-c2cn(C(C)C)nc2C)c(=O)n4C)cn1
Q: Identify the entry with the larger pIC50. Options: 1 and 2 Label of pick, please.
A: 2
